I'd be grateful if you could share measured inhibition for these entries.
biological target: Ca2+/calmodulin-dependent protein kinase II (CaM kinase II) (Rattus norvegicus) (UniProt P11275+P08413+P15791+P11730); assay: Inhibition of rat Calcium/calmodulin-dependent protein kinase type II at 30 uM; type: protein assay
Value expressed in %; do not type the unit.

Q) May I ask what inhibition has been recorded for Fc1ccc(-[n+]2c[nH]c3ncncc32)cc1 ?
A) 0

Q) Follow-up entry: Cn1cnc2c(Sc3ccc(F)cc3)ncnc21
A) 5

Q) What about this molecule? Clc1ncnc2ncn(Cc3ccccc3)c12
A) 0

Q) Fc1ccc(Cn2cnc3ncnc(Cl)c32)cc1 , same question.
A) 8

Q) Follow-up entry: Cn1cnc2c(-c3ccccc3)ncnc21
A) 8

Q) Then this molecule: Fc1ccc(Nc2[nH]cnc3ncnc2-3)cc1
A) 2
